Provenance of the data: patent US7005505

# key: entry, value: IC50
target: T1, FLT-1 IgG (UniProt P17948 27-758); assay: competition with 125I-VEGF165 for FLT-1-IgG, radioligand plate assay
T1 construct: Construct only cited from Park et al. 1994; also called FLT-IgG; FLT-1 receptor-IgG chimera; not shown: IgG part of the chimera (captured by anti-human IgG Fc)
T1 sequence (P17948 27-758): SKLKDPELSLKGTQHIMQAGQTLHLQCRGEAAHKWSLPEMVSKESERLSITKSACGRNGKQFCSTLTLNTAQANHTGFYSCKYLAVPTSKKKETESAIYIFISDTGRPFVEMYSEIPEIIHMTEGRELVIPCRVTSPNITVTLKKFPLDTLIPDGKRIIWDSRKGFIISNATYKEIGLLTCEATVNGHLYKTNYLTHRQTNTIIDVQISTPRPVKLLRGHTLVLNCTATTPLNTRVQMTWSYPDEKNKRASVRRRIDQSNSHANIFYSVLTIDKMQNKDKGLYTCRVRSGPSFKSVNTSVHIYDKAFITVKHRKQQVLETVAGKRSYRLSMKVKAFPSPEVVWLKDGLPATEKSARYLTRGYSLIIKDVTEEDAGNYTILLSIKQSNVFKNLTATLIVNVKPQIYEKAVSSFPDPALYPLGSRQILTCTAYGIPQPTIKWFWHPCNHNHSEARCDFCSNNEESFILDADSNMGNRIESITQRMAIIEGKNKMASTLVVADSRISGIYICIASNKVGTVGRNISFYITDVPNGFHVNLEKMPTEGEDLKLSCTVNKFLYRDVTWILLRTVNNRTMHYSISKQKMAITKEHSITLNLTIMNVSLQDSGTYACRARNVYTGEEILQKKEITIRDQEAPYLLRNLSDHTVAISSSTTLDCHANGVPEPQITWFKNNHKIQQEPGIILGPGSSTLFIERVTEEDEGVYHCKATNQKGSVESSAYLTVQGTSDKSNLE
Lab book: enter the figure in ng/mL, no units written.

D109A, R110A VEGF (ligand, VEGF165 mutant from 293 cells, conditioned medium) APMAEGGGQNHHEVVKFMDVYQRSYCHPIETLVDIFQEYPDEIEYIFKPSCVPLMRCGGCCNDEGLECVPTEESNITMQIMRIKPHQGQHIGEMSFLQHNKCECRPKKAAARQENPCGPCSERRKHLFVQDPQTCKCSCKNTDSRCKARQLELNERTCRCDKPRR	1.42

Please examine the following record next.
q: Param item = E72A, E73A VEGF (ligand, VEGF165 mutant from 293 cells, conditioned medium) APMAEGGGQNHHEVVKFMDVYQRSYCHPIETLVDIFQEYPDEIEYIFKPSCVPLMRCGGCCNDEGLECVPTAASNITMQIMRIKPHQGQHIGEMSFLQHNKCECRPKKDRARQENPCGPCSERRKHLFVQDPQTCKCSCKNTDSRCKARQLELNERTCRCDKPRR ; retrieve measured IC50.
a: 0.91
